Data origin, for the record: patent US20150175655A1

Measured EC50 by item
System: genotype 1a transient HCV replicon, NS3/4a protease inhibitor resistant variant R155K, in Huh-7-derived cells
assay.info: Transient-transfected HCV replicon EC50, genotype 1a R155K
Assay type: cell-based
recorded.conditions: Hepatitis C virus, 72 h, read-out: EC50 1A R155K
measurement.label: EC50 (nM)

>>> test_result("C=C[C@@H]1C[C@]1(NC(=O)[C@@H]1[C@H](CC)[C@@H]2CN1C(=O)[C@H](C(C)(C)C)NC(=O)O[C@@H]1C[C@H]1CCCCC(F)(F)c1nc3ccc(OC)cc3nc1O2)C(=O)NS(=O)(=O)C1CC1")
3
>>> test_result("CC[C@@H]1[C@@H]2CN(C(=O)[C@H](C(C)(C)C)NC(=O)O[C@]3(C(F)(F)F)CCC[C@H]3CCCCCc3nc4ccc(OC)cc4nc3O2)[C@@H]1C(=O)N[C@]1(C(=O)NS(=O)(=O)C2CC2)C[C@H]1C(F)F")
159
